# TARGET OF ASSAY: Adenosine receptor A3 (Homo sapiens, UniProt P0DMS8)
# Sequence (P0DMS8 whole entry): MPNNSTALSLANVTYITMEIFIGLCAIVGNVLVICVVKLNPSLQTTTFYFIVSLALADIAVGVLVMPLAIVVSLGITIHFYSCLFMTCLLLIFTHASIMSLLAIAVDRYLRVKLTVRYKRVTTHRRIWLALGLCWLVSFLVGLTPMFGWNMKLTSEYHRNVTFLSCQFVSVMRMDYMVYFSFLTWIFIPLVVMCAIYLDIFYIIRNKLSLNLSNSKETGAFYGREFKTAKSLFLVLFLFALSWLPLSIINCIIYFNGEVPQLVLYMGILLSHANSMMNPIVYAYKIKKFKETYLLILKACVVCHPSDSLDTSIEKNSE
Record: compiled log10(Ki) on Adenosine receptor A3 (Homo sapiens, UniProt P0DMS8) from multiple reports.
OBSERVABLE: log10(Ki) (log10 of the value in nM)

{"STRUCTURE SMILES": "COc1cc(Nc2nc3c(Cl)ncnc3s2)cc(OC)c1OC", "log10(Ki)": 3.42}
{"STRUCTURE SMILES": "CCCn1cc2nc(NC(=O)Nc3ccc(OC)cc3)n3nc(-c4ccco4)nc3c2c1", "log10(Ki)": 1.00}
{"STRUCTURE SMILES": "CSc1cccc2nc(-c3cnc4ccccc4n3)[nH]c12", "log10(Ki)": 2.44}
{"STRUCTURE SMILES": "CCOC(=O)Cn1c(=O)c2c(nc3[nH]c(C)cn32)n(Cc2ccccc2)c1=O", "log10(Ki)": 1.30}
{"STRUCTURE SMILES": "CCOc1nc2nn(C)cc2c2nc(-c3ccco3)nn12", "log10(Ki)": 2.26}
{"STRUCTURE SMILES": "Cn1cc2c(nc(NC(=O)C(c3ccccc3)c3ccccc3)n3nc(-c4ccco4)nc23)n1", "log10(Ki)": -0.60}
{"STRUCTURE SMILES": "CNc1nc(C#Cc2ccc(Cl)s2)nc2c1ncn2[C@H]1[C@H](O)[C@H](O)[C@]2(C(=O)NCCN)C[C@H]12", "log10(Ki)": 2.19}
{"STRUCTURE SMILES": "Oc1nc2ccccc2n2nc(-c3ccco3)nc12", "log10(Ki)": 1.52}
{"STRUCTURE SMILES": "Nc1cccc2c1nc(NC(=O)C(c1ccccc1)c1ccccc1)c1nn(-c3ccccc3)c(=O)n12", "log10(Ki)": 0.94}
{"STRUCTURE SMILES": "CCCN1CCC(NC(=O)Nc2nc3nn(C)cc3c3nc(-c4ccco4)nn23)CC1", "log10(Ki)": 1.85}
{"STRUCTURE SMILES": "NCCCCC(=O)Nc1nc2ccc(Cl)cc2c2nc(-c3ccco3)nn12", "log10(Ki)": 1.76}
{"STRUCTURE SMILES": "Cn1cc2c(nc(NC(=O)Cc3ccccc3)n3nc(-c4ccc([N+](=O)[O-])cc4)nc23)n1", "log10(Ki)": -0.20}
{"STRUCTURE SMILES": "Cc1ccc(C(=O)Nc2nc(Cl)c3cn(CC(C)(C)C)nc3n2)cc1", "log10(Ki)": 3.70}
{"STRUCTURE SMILES": "O=C(c1ccco1)N(C(=O)c1ccco1)c1nc(-c2ccccc2)nc2cn(-c3ccccc3)nc12", "log10(Ki)": 1.88}
{"STRUCTURE SMILES": "CC(C)NC(=O)Nc1nc2nn(CCc3ccccc3)cc2c2nc(-c3ccco3)nn12", "log10(Ki)": 0.95}
{"STRUCTURE SMILES": "CCCn1cc2c(nc(NC(=O)Cc3ccc4ccccc4c3)n3nc(-c4ccco4)nc23)n1", "log10(Ki)": 1.98}
{"STRUCTURE SMILES": "Oc1nc2ccccc2c2cn(-c3cccc(F)c3)nc12", "log10(Ki)": 1.66}
